Entry source: the supplement of paper PMC9233669

- Tested on: biotinyl-Phe-oxazolone
- method: self-aminoacylation, catalytic enhancement (BFO) (fold over background); higher = more active; k-Seq, kA / k0A0; sequences stand for … in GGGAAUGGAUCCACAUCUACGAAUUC…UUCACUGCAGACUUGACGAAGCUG
This sample holds only a part of the variants without activity.
Would you please tag the item MET when its self-aminoacylation is 3 or above, and NOT MET when it is below?

// known answers, use as guide
INSERT INTO results (query_sequence, assigned_label) VALUES
  ('AUAACUCUGGUCAUCGAGUGA [Fam2.1 aminoacylation ribozyme variant]', 'MET'),
  ('AUUCACCUAGGGCAACGGGUG [Fam2.2 aminoacylation ribozyme variant]', 'MET');

Has AAGUUUGCUUAUAGUCGCCAG [Fam3.1 aminoacylation ribozyme variant] a recorded self-aminoacylation greater than or equal to 3?
NOT MET

Please do the same for AAGUUUGCUAAUUGUCGCAUG [Fam3.1 aminoacylation ribozyme variant] as well.
NOT MET

Please do the same for CCACAUUUCAAGCAAUCAGUC [Fam1B.1 aminoacylation ribozyme variant] as well.
NOT MET

Please do the same for AUUACCCGGAUCAUCGAGUGA [Fam2.1 aminoacylation ribozyme variant] as well.
MET

Please do the same for AAGUUUACCAAUAGUCGCAAG [Fam3.1 aminoacylation ribozyme variant] as well.
NOT MET

Please do the same for AUUACCCUGGCCAUCGAGUUA [Fam2.1 aminoacylation ribozyme variant] as well.
NOT MET
